System: KARPAS-1106P (B-Cell Non-Hodgkin's Lymphoma)
assay info: combination Emax (second highest fraction inhibited in the dose matrix, 72 h); higher = more inhibition; extreme values may be limits of the assay
parameter: combination Emax
Lab note: record just the number, no unit beside it.

Example results:
Cc1nc(Nc2ncc(C(=O)Nc3c(C)cccc3Cl)s2)cc(N2CCN(CCO)CC2)n1 [Dasatinib] + CC(=O)Nc1cccc(-n2c(=O)n(C3CC3)c(=O)c3c(Nc4ccc(I)cc4F)n(C)c(=O)c(C)c32)c1 [Trametinib] (first compound max 2 µM, 7x7, partner max 1 µM)	0.741
NC1(C(=O)N[C@@H](CCO)c2ccc(Cl)cc2)CCN(c2ncnc3[nH]ccc23)CC1 [Capivasertib] + Cn1cnc2c(F)c(Nc3ccc(Br)cc3Cl)c(C(=O)NOCCO)cc21 [Selumetinib] (first compound max 10 µM, 7x7, partner max 10 µM)	0.586
CN(CCO)CC[C@H](CSc1ccccc1)Nc1ccc(S(=O)(=O)NC(=O)c2ccc(N3CCC([C@@H](O)c4ccccc4-c4ccc(Cl)cc4)CC3)cc2)cc1S(=O)(=O)C(F)(F)F [AZD4320] + C1CN(CCC1(C(=O)N[C@@H](CCO)C2=CC=C(C=C2)Cl)N)C3=NC=NC4=C3C=CN4 [Capivasertib] (first compound max 1 µM, 7x7, partner max 3 µM)	0.16
Cc1cc2ncnn2cc1Nc1ncc2c(n1)n(C1CCOCC1)c(=O)n2C [AZD7648] + C[C@@H]1COCCN1C2=NC(=NC(=C2)C3(CC3)[S@](=N)(=O)C)C4=C5C=CNC5=NC=C4 [AZD6738] (first compound max 10 µM, 7x7, partner max 10 µM)	0.756
C[C@@H](c1ccc2nccn2c1)n1nnc2ncc(-c3cnn(C)c3)nc21 [Savolitinib] + Cc1c2c(nn1C)CSCc1cc(n(C)n1)CSc1cc(c3ccccc3c1)OCCCc1c(C(=O)O)n(C)c3c-2c(Cl)ccc13 [AZD5991] (first compound max 1 µM, 7x7, partner max 1 µM)	0.734
COc1nnc2ccc(N3CCC(c4ccc(OCCN5CCN(C)C(=O)[C@H]5C)cc4)CC3)nn12 [AZD5153] + C=CCn1c(=O)c2cnc(Nc3ccc(N4CCN(C)CC4)cc3)nc2n1-c1cccc(C(C)(C)O)n1 [AZD1775] (first compound max 1 µM, partner max 1 µM)	0.884

Asked: Quick check: combination Emax on KARPAS-1106P (B-Cell Non-Hodgkin's Lymphoma), item CN(CCO)CC[C@H](CSc1ccccc1)Nc1ccc(S(=O)(=O)NC(=O)c2ccc(N3CCC([C@@H](O)c4ccccc4-c4ccc(Cl)cc4)CC3)cc2)cc1S(=O)(=O)C(F)(F)F [AZD4320] + C[C@@H](Nc1cc(F)cc(F)c1)c1cc(C(=O)N(C)C)cc2c(=O)cc(N3CCOCC3)oc12 [AZD8186] (first compound max 1 µM, 7x7, partner max 3 µM) ?
Given back: 0.951

----------
In this section, each of the compounds is paired with its reported combination Emax.
Test system: SUIT-2 (Pancreatic Carcinoma)
assay info: combination Emax (second highest fraction inhibited in the dose matrix, 72 h); higher = more inhibition; extreme values may be limits of the assay
Please give only the number in your answer, with no unit.

NC1(C(=O)N[C@@H](CCO)c2ccc(Cl)cc2)CCN(c2ncnc3[nH]ccc23)CC1 [Capivasertib] + CC(=O)c1c(C)c2cnc(Nc3ccc(N4CCNCC4)cn3)nc2n(C2CCCC2)c1=O [Palbociclib] (first compound max 10 µM, 7x7, partner max 10 µM)	0.552
COc1cccc(OCCCN)c1-c1cc(Nc2cnc(C#N)cn2)n[nH]1 [Prexasertib] + Cc1cc2ncnn2cc1Nc1ncc2c(n1)n(C1CCOCC1)c(=O)n2C [AZD7648] (first compound max 1 µM, 7x7, partner max 10 µM)	0.739
NC1(C(=O)N[C@@H](CCO)c2ccc(Cl)cc2)CCN(c2ncnc3[nH]ccc23)CC1 [Capivasertib] + Cn1cnc2c(F)c(Nc3ccc(Br)cc3Cl)c(C(=O)NOCCO)cc21 [Selumetinib] (first compound max 10 µM, 7x7, partner max 10 µM)	0.646

Asked: Given the entry Cn1cnc2c(F)c(Nc3ccc(Br)cc3Cl)c(C(=O)NOCCO)cc21 [Selumetinib] + CC(C)n1c(=O)n(C)c2cnc3cc(F)c(-c4ccc(OCCCN5CCCCC5)nc4)cc3c21 [AZD1390] (first compound max 10 µM, 7x7, partner max 0.3 µM) , what combination Emax was observed with SUIT-2 (Pancreatic Carcinoma)?
Given back: 0.284
